- Test system: c-Myc
- Run Description: c-Myc immunofluorescence assay
- Format: cell-based, human
- Stated Conditions: A549 cells, 24 hours treatment, anti-c-Myc immunofluorescence
- Description: A549 human non-small cell lung carcinoma cells were treated for 24 hours with increasing compound concentration, cells were fixed and stained with a nuclei stain (DAPI) and anti-c-Myc fluorescent antibody. The c-Myc signal was quantified by image analysis, and data was exported and analyzed using TIBCO Spotfire® (TIBCO Corporation). […] Cell images were taken with Operetta (Perkin Elmer, USA), a wide-field fluorescence microscope at 20× magnification. […]
Observation Type: Myc Efficacy (−LogEC50)

These solved cases illustrate the format of a correct answer.
O=C(NCCCN1CCC(F)CC1)c1ccc2c(c1)sc1nc(-c3ccc(C4CCCNC4)cc3F)cn12 (stereo not shown)    +++ (+++ ≥6)
CNC(=O)c1ccc(-c2cn3c(n2)sc2cc(C(=O)NCCCn4ccnc4)ccc23)cc1    + (+ >3 and <5)
CCN(CC)CCCNC(=O)c1ccc2c(c1)sc1nc(-c3ccc(C(=O)NC)c(F)c3)cn12    + (+ >3 and <5)
CCN(CC)CCCNC(=O)c1ccc2c(c1)sc1nc(-c3ccc([C@@H]4CCCN4)cc3)cn12    +++ (+++ ≥6)

Find the recorded Myc Efficacy (−LogEC50) belonging to NCc1ccc(-c2cn3c(n2)sc2cc(C(=O)NCCCN4CCCCC4)ccc23)c(C2CC2)c1 and report it.
+++ (+++ ≥6)

* * *

- Test system: c-Myc
- Run Description: c-Myc immunofluorescence assay
- Assay type: cell-based, human
- Stated Conditions: A549 cells, 24 hours treatment, anti-c-Myc immunofluorescence
Observation Type: Myc Efficacy (−LogEC50)

CCN(CC)CCCNC(=O)c1ccc2c(c1)sc1nc(-c3ccccc3F)cn12    ++ (++ ≥5 and <6)
CCN1CCC[C@H]1CNC(=O)c1ccc2c(c1)sc1nc(-c3cccc(OC)c3)cn12    ++ (++ ≥5 and <6)

* * *

- Tested on: c-Myc
- Run Description: c-Myc immunofluorescence assay
- Assay type: cell-based, human
- Stated Conditions: A549 cells, 24 hours treatment, anti-c-Myc immunofluorescence
Observation Type: Myc Efficacy (−LogEC50)

Answered cases to consult:
CNC(=O)c1ccc(-c2cn3c(n2)sc2cc(C(=O)NC4CC(N(C)C)C4)ccc23)cc1 (stereo not shown)    + (+ >3 and <5)
NCc1ccc(-c2cn3c(n2)sc2cc(C(=O)NCCCN4CCCCC4)ccc23)cc1F    +++ (+++ ≥6)
CN1CCC[C@H](NC(=O)c2ccc3c(c2)sc2nc(-c4ccc(C5CCCN5)cc4F)cn23)C1 (stereo partly shown) [Compound 491S]    +++ (+++ ≥6)
O=C(NCCCN1CCC(F)CC1)c1ccc2c(c1)sc1nc(-c3cc4c(cc3F)NCC4)cn12    +++ (+++ ≥6)

Returns the measured Myc Efficacy (−LogEC50) for the input molecule. Input: CCN(CC)CCCNC(=O)c1ccc2c(c1)sc1nc(-c3cccc(OC)c3)cn12
++ (++ ≥5 and <6)

* * *

- Test system: c-Myc
- Run Description: c-Myc immunofluorescence assay
- Assay type: cell-based, human
- Stated Conditions: A549 cells, 24 hours treatment, anti-c-Myc immunofluorescence
Where a name gives a salt, the structure may show the parent alone.
Observation Type: Myc Efficacy (−LogEC50)

Study these solved cases before continuing.
CCN(CC)CCCNC(=O)c1ccc2c(c1)sc1nc(-c3ccc([C@H]4CCCN4)cc3)cn12 [compound 414]    +++ (+++ ≥6)
CN1CCC[C@@H](NC(=O)c2ccc3c(c2)sc2nc(-c4ccc(C5CCCN5)cc4F)cn23)C1 (stereo partly drawn) [Compound 491R]    +++ (+++ ≥6)
NCc1ccc(-c2nc3sc4cc(C(=O)NCCCN5CCCCC5)ccc4n3n2)cc1 [compound 392]    +++ (+++ ≥6)
CCN(CC)CCCNC(=O)c1ccc2c(c1)sc1nc(-c3ccc(N4CCCC4=O)cc3)cn12 [compound 179]    + (+ >3 and <5)
CCCN1CCC(NC(=O)c2ccc3c(c2)sc2nc(-c4ccc(C(=O)NC)cc4)cn23)CC1 [compound 264]    +++ (+++ ≥6)

Consider the compound O=C(NCCCN1CCCCC1)c1ccc2c(c1)sc1nc(-c3ccc(CNC4CC4)cc3F)cn12 [compound 368] and give its measured Myc Efficacy (−LogEC50).
+++ (+++ ≥6)

Would you mind doing O=C(NCCCN1CCC(F)CC1)c1ccc2c(c1)sc1nc(-c3cc4c(cc3F)CCNC4)cn12 [Compound 600, dihydrochloride] as well?
+++ (+++ ≥6)

Then CN1CCC(NC(=O)c2ccc3c(c2)sc2nc(-c4ccc([C@@H]5C[C@@H](O)CN5)cc4F)cn23)CC1 [Compound 522R] ?
+++ (+++ ≥6)

Would you mind doing CNC(=O)c1ccc(-c2cn3c(n2)sc2cc(C(=O)N[C@H](C)C4CC4)ccc23)cc1 [compound 274] as well?
+ (+ >3 and <5)

Then this compound: CNC(=O)c1ccc(-c2cn3c(n2)sc2cc(C(=O)NCCCN4CCCC4)ccc23)cc1 [compound 310]
+ (+ >3 and <5)

Then what about the compound CCN1CCC[C@@H]1CNC(=O)c1ccc2c(c1)sc1nc(-c3ccc(C(=O)NC)cc3)cn12 [compound 214] ?
+ (+ >3 and <5)

Hello, the source for this data is patent US12404283B2, in case you need it.
